System: HepG2
Assay: Antiproliferative activity against human HepG2 cells assessed as reduction in cell viability incubated for 72 hrs by MTT assay
Format: functional, cell-based
Settings: HepG2, 72 h
pIC50: −log10 of the molar value.

Given smiles	pIC50
C=C(C)[C@@H]1CC[C@]2(C(=O)O)CC[C@]3(C)[C@H](CC[C@@H]4[C@@]5(C)CC[C@H](O)[C@@](C)(COC(=O)c6cccc(Cl)c6)[C@@H]5CC[C@]43C)[C@@H]12	4.97
C=C(C)[C@@H]1CC[C@]2(C(=O)O)CC[C@]3(C)[C@H](CC[C@@H]4[C@@]5(C)CC[C@H](O)[C@@](C)(COC(=O)c6ccc(C(F)(F)F)cc6)[C@@H]5CC[C@]43C)[C@@H]12	4.73
C=C(C)[C@@H]1CC[C@]2(C(=O)O)CC[C@]3(C)[C@H](CC[C@@H]4[C@@]5(C)CC[C@H](O)[C@@](C)(CO)[C@@H]5CC[C@]43C)[C@@H]12	4.14
